experimentalProtocol: qHTS Assay for Lipid Storage Modulators in Drosophila S3 Cells
conditionDescription: BODIPY lipid droplet fluorescence, 18-24 h, cells fed with added oleic acid; series mostly up to 46.1 µM
Screen size: about 320,000 compounds; about 2,100 (0.66%) were called active. About 53% were inconclusive and are not listed. Calls follow the shape of the dose curve; as a rule, active = well fitted inhibition curve with a large enough effect in the signal ratio, with a control signal flat (not every such curve was filed as active); inconclusive = small, poorly fitted or top-dose-only effect, or effect the other way, or a change in a side signal; inactive = flat fitted curve, though single readings scatter; the % refers to the signal ratio. The list comes from a sample in which actives are over-represented; it also holds close analogues and randomly drawn compounds.
Give one outcome, nothing more. List: active, inactive

Given C/C(=N/NC(=O)c1ccncc1)c1ccccc1 , state the outcome it received in this test. inactive

Given O=C(NCc1ccc(F)cc1)C1CCCN1C(=O)Nc1ccc(F)cc1 (stereo not drawn) , state the outcome it received in this test. inactive

Given CC1CC(C)CN(C(=O)COC(=O)c2c[nH]c3ccccc23)C1 (stereo not drawn) , state the outcome it received in this test. active

Given Cc1ccc(S(=O)(=O)N2CCC(C(=O)OCC(=O)N3CC(=O)Nc4ccccc43)CC2)cc1 , state the outcome it received in this test. inactive

Given CC(=O)Nc1ccc(S(=O)(=O)N(C)CC(=O)OCC(=O)N2CCCCCC2)cc1 , state the outcome it received in this test. inactive

Given O=[N+]([O-])c1ccc(N/N=C/c2sc(N3CCOCC3)nc2-c2ccccc2)c(S(=O)(=O)Nc2ccccc2Cl)c1 , state the outcome it received in this test. active

Given C#CCOCCOCCOCCNc1nc(N2CCN(C(=O)[C@H](CCC(=O)O)n3cc(C(N)CO)nn3)CC2)nc(N2CCN(C(=O)[C@H](Cc3cc4ccccc4[nH]3)n3cc(C(N)[C@H](C)CC)nn3)CC2)n1 (stereo partly drawn) , state the outcome it received in this test. inactive

Given Cc1ccc(CN2CCN(CC(C)C)C(CCO)C2)s1 (stereo not drawn) , state the outcome it received in this test. inactive

Given COc1ccccc1NS(=O)(=O)c1ccc2nc(CCl)[nH]c2c1 , state the outcome it received in this test. active

Given Cc1ccc(-c2nnnn2C2C/C(=N\NC(N)=S)C3OCC2O3)cc1 (stereo not drawn) , state the outcome it received in this test. inactive

Given CC1CC(C)CN(C(=O)COC(=O)Cc2c[nH]c3ccccc23)C1 (stereo not drawn) , state the outcome it received in this test. inactive

Given O=C(N/N=C/c1sc(N2CCOCC2)nc1-c1ccccc1)c1cccc(S(=O)(=O)N2CCCC2)c1 , state the outcome it received in this test. inactive

Given O=C(Nc1ccccc1)N1CCN(c2nc3ccccc3s2)CC1 , state the outcome it received in this test. inactive
